Hey, just so you know, these numbers are from ChEMBL document CHEMBL1139405.

Target: 4-aminobutyrate aminotransferase, mitochondrial (Homo sapiens) (UniProt P80404)
Sequence (P80404 whole entry): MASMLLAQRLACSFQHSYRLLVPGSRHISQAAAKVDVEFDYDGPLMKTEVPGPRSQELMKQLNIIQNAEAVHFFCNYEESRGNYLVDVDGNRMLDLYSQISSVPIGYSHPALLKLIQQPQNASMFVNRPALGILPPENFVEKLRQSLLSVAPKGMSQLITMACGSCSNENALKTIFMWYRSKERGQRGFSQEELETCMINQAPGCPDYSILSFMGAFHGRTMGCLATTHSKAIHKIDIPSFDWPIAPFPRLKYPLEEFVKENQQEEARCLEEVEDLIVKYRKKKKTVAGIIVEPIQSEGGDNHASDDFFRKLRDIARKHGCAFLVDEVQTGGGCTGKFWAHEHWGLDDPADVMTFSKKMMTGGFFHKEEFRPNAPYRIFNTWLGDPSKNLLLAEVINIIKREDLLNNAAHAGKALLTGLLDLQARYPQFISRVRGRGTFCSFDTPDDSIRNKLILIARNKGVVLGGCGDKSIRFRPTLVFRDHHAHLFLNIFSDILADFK
Test: Inhibition of GABA-transaminase at 100 uM
Calls of active or inactive are those of the source. The rule behind the calls is not given here.
observed property: Activity

>>> measurement("C#CCN(CC#C)/N=C/Cc1ccc(OC)cc1")
"inactive"
>>> measurement("C#CCN/N=C/Cc1ccccc1F")
"inactive"
>>> measurement("C#CCN/N=C/Cc1cccc(C(F)(F)F)c1")
"inactive"
>>> measurement("C#CCN(CC#C)/N=C/Cc1ccccc1OC")
"inactive"
>>> measurement("C#CCN(CC#C)/N=C/Cc1ccccc1F")
"inactive"
>>> measurement("C#CCN/N=C/Cc1ccc(OC)cc1")
"inactive"
>>> measurement("C#CCN(CC#C)/N=C/Cc1ccccc1Cl")
"inactive"
>>> measurement("C#CCN(CC#C)/N=C/Cc1ccccc1C(F)(F)F")
"inactive"

Next, consider the following compound.
Return reported Activity; argument: C#CCN/N=C/Cc1ccccc1 inactive
